Origin of measurements: the supplement of paper PMC10307832

- Test system: NCI-H1651
- run_description: relative viability (nuclei count vs DMSO), 5 days (fraction); higher = more cells survive
- cond: first compound 0.08 µM
Please provide measured relative viability for the entries that follow.
API doc: respond with a numeric literal and nothing else, no unit.

Task: What is its relative viability for NCI-H1651? Entry: Cc1cnc(-c2cnc(NCCNc3ccc(C#N)cn3)nc2-c2ccc(Cl)cc2Cl)[nH]1 + CC1(C)CCC(c2ccc(Cl)cc2)=C(CN2CCN(c3ccc(C(=O)NS(=O)(=O)c4ccc(N[C@H](CCN5CCOCC5)CSc5ccccc5)c(S(=O)(=O)C(F)(F)F)c4)cc3)CC2)C1 [Navitoclax] (partner 0.5 µM)
Result: 1.09

Task: Requested read-out relative viability, target or system NCI-H1651, entry Cc1cnc(-c2cnc(NCCNc3ccc(C#N)cn3)nc2-c2ccc(Cl)cc2Cl)[nH]1 + Cc1cc(Nc2cc(N3CCN(C)CC3)nc(Sc3ccc(NC(=O)C4CC4)cc3)n2)n[nH]1 [Tozasertib] (partner 0.1 µM)
Result: 0.7

Task: Param readout= relative viability; system= NCI-H1651; entry= Cc1cnc(-c2cnc(NCCNc3ccc(C#N)cn3)nc2-c2ccc(Cl)cc2Cl)[nH]1 + CC(=O)c1c(C)c2cnc(Nc3ccc(N4CCNCC4)cn3)nc2n(C2CCCC2)c1=O [Palbociclib] (partner 0.5 µM) ; returns value.
Result: 0.58

Task: Find the measured relative viability: item Cc1cnc(-c2cnc(NCCNc3ccc(C#N)cn3)nc2-c2ccc(Cl)cc2Cl)[nH]1 + COc1cccc2cc(-c3nc([C@H]4CC[C@H](C(=O)O)CC4)n4ncnc(N)c34)[nH]c12 [OSI-027] (partner 0.5 µM) , target or system NCI-H1651.
Result: 0.797

====

- System: CAL-12T
- run_description: relative viability (nuclei count vs DMSO), 5 days (fraction); higher = more cells survive
- cond: first compound 4 µM
Threshold-based label: relative viability under 0.2 gives class 1, relative viability not under 0.2 gives class 0.

Task: Field: below-cutoff. Rule: recorded relative viability strictly less than 0.2. Subject: Cc1sc2c(c1C)C(c1ccc(Cl)cc1)=N[C@@H](CC(=O)OC(C)(C)C)c1nnc(C)n1-2 [JQ1] + CS(=O)(=O)N1CCN(Cc2cc3nc(-c4cccc5[nH]ncc45)nc(N4CCOCC4)c3s2)CC1 [Pictilisib] (partner 1 µM)
Result: class 0

Task: Find out if reported relative viability for Cc1sc2c(c1C)C(c1ccc(Cl)cc1)=N[C@@H](CC(=O)OC(C)(C)C)c1nnc(C)n1-2 [JQ1] + N=C(N)NC(=N)NCCc1ccccc1 [Phenformin] (partner 250 µM) is less than 0.2
Result: class 0

Task: Please indicate whether the reported relative viability of Cc1sc2c(c1C)C(c1ccc(Cl)cc1)=N[C@@H](CC(=O)OC(C)(C)C)c1nnc(C)n1-2 [JQ1] + CC(C)C[C@H](NC(=O)[C@H](Cc1ccccc1)NC(=O)c1cnccn1)B(O)O [Bortezomib] (partner 0.002 µM) is strictly below 0.2.
Result: class 0

Task: Find out if reported relative viability for Cc1sc2c(c1C)C(c1ccc(Cl)cc1)=N[C@@H](CC(=O)OC(C)(C)C)c1nnc(C)n1-2 [JQ1] + Cc1nc(Nc2ncc(C(=O)Nc3c(C)cccc3Cl)s2)cc(N2CCN(CCO)CC2)n1 [Dasatinib] (partner 0.075 µM) is less than 0.2
Result: class 0

Task: Is relative viability strictly under 0.2 for the entry Cc1sc2c(c1C)C(c1ccc(Cl)cc1)=N[C@@H](CC(=O)OC(C)(C)C)c1nnc(C)n1-2 [JQ1] + CCNC(=O)c1noc(-c2cc(C(C)C)c(O)cc2O)c1-c1ccc(CN2CCOCC2)cc1 [Luminespib] (partner 0.01 µM) ?
Result: class 1
